Molecular target: Recombinant human cathepsin K (Homo sapiens)
Construct: made in house
Sequence (P43235 115-329): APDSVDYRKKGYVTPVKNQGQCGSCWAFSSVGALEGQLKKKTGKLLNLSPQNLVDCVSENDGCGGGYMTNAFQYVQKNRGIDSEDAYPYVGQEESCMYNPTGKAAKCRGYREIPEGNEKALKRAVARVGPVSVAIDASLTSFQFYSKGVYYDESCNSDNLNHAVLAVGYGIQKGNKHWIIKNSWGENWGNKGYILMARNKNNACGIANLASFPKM
Assay: Recombinant cathepsin inhibition, gel-based competition with GB123 probe
Assay type: biochemical
Settings: Table S2; three independent competition gel-based experiments; read-out: CTSK (IC50)
Source text: In-gel fluorescence analysis was used to detect the residual activity of the cathepsins by applying pan-cathepsin probe GB123 to detect the stable enzyme–probe complex. This approach is used for testing inhibition and selectivity.[37],[41] […]
observed-property: pIC50
Convention used: pIC50 is expressed as -log10 of the molar concentration.

input: Provide value of pIC50 for this record tested with Recombinant human cathepsin K (Homo sapiens): "Cc1cccc(C)c1C(=O)OCC(=O)CNC(=O)[C@@H]1CCCN1C(=O)CNC(=O)OCc1ccccc1"
output: 5.74

input: // repeat for "Cc1cccc(C)c1C(=O)OCC(=O)[C@H](CCCCN)NC(=O)[C@@H]1CCCN1C(=O)CNC(=O)OCc1ccccc1" and report
output: 5.57

input: Also "Cc1cccc(C)c1C(=O)OCC(=O)CNC(=O)[C@H](CC(C)(C)F)N[C@@H](c1ccc(-c2ccc(NC(=O)OC(C)(C)C)cc2)cc1)C(F)(F)F" ?
output: 5.80

input: Moving on to the next compound: "CC(C)C[C@H](NC(=O)OCC1c2ccccc2-c2ccccc21)C(=O)N1CCC[C@H]1C(=O)OCC(=O)CNC(=O)[C@@H](CC(C)C)N[C@H](c1ccc(-c2ccc(S(C)(=O)=O)cc2)cc1)C(F)(F)F"
output: 5.46

input: Request: "CC(C)C[C@H](N[C@H](c1ccc(-c2ccc(S(C)(=O)=O)cc2)cc1)C(F)(F)F)C(=O)NCC(=O)COC(=O)[C@@H]1CCCN1C(=O)[C@H](CC(C)C)NC(=O)OCC1c2ccccc2-c2ccccc21"
output: 5.46

input: Thanks! And "NCCCC[C@H](NC(=O)[C@H](Cc1ccccc1)NC(=O)OCc1ccccc1)C(=O)CSc1c(F)c(F)cc(F)c1F" ?
output: 6.19

input: Entry "CC(C)C[C@H](N[C@@H](c1ccc(-c2ccc(S(=O)(=O)NC(=O)OC(C)(C)C)cc2)cc1)C(F)(F)F)C(=O)NCC(=O)COC(=O)[C@@H]1CCCN1C(=O)[C@H](CC(C)C)NC(=O)OCC1c2ccccc2-c2ccccc21" please
output: 6.05

input: Same lookup for "CC(C)C[C@H](N[C@@H](c1ccc(-c2ccc(S(C)(=O)=O)cc2)cc1)C(F)(F)F)C(=O)NCC(=O)COC(=O)[C@@H]1CCCN1C(=O)[C@H](CCC(N)=O)NC(=O)OCC1c2ccccc2-c2ccccc21" , please.
output: 6.70

input: Record: Cc1cccc(C)c1C(=O)OCC(=O)[C@H](CCCCN)NC(=O)[C@H](Cc1ccccc1)NC(=O)OCc1ccccc1 [GB111-NH2, reference compound]
output: 5.36

input: What about "O=C(CNC(=O)[C@@H]1CCCN1C(=O)CNC(=O)OCc1ccccc1)CSc1c(F)c(F)cc(F)c1F" ?
output: 5.92

input: Same again, this time with "CC(C)C[C@H](N[C@@H](c1ccc(-c2ccc(CCNC(=O)OC(C)(C)C)cc2)cc1)C(F)(F)F)C(=O)NCC(=O)COC(=O)[C@@H]1CCCN1C(=O)[C@H](CC(C)C)NC(=O)OCC1c2ccccc2-c2ccccc21"
output: 6.05

input: Next: "CC(C)C[C@H](N[C@@H](c1ccc(-c2ccc(S(C)(=O)=O)cc2)cc1)C(F)(F)F)C(=O)NCC(=O)COC(=O)CNC(=O)OCC1c2ccccc2-c2ccccc21"
output: 6.00

input: Query "CC(C)C[C@H](NC(=O)OCC1c2ccccc2-c2ccccc21)C(=O)N1CCC[C@H]1C(=O)OCC(=O)CNC(=O)[C@@H](CC(C)C)N[C@@H](c1ccc(-c2ccc(S(C)(=O)=O)cc2)cc1)C(F)(F)F" next
output: 5.41

input: Please give the result for "NCCCC[C@H](NC(=O)[C@@H]1CCCN1C(=O)CNC(=O)OCc1ccccc1)C(=O)COc1c(F)c(F)cc(F)c1F" too.
output: 6.52
